Tested on: UACC-62
protocol-description: Cytotoxicity against human UACC62 cells assessed as cell growth at 10 uM
Type: cell-based
cond: uacc-62, 10 µM
Provide the recorded Activity for the entries that follow.
Give bare numbers, in %.

Worked examples, 4 compounds total:
>>> df
                                   compound  tested_target  obs_value
0  CN1C(=O)c2cc(C(=O)NCc3ccccc3)nc3c(Cl)cc(Cl)c1c23        UACC-62     101.93
1  COC(=O)c1cc(C(=O)OC)c2c(Cl)cc(N)c(Cl)c2n1        UACC-62      97.93
2  CN(C)C(=O)c1cc2c3c(c(Cl)cc(Cl)c3n1)N(C)C2=O        UACC-62     110.63
3     COC(=O)c1cc(C(=O)OC)c2c(Cl)cc(N)cc2n1        UACC-62      101.7

Batch request: Activity for each of the following compounds.
1. COC(=O)c1cc(C(N)=O)nc2cc(NC(C)=O)cc(Cl)c12
2. COC(=O)c1cc(C(N)=O)nc2cc(N)cc(Cl)c12
3. CN1C(=O)c2cc(C(N)=O)nc3c(Cl)cc(Cl)c1c23
4. COC(=O)c1cc(C(=O)OC)c2c(Cl)cc(NC(C)=O)cc2n1
5. CN1C(=O)c2cc(C(N)=O)nc3c(N)c(Cl)c(N)c1c23 [AMMOSAMIDE B]
6. COC(=O)c1cc2c3c(n1)C(=O)C(=O)C(Cl)=C3N(C)C2=O
7. COC(=O)c1cc(C(=O)OC)c2c(Cl)cc(N(C)C)cc2n1

Solution:
1: 108.54; 2: 102.96; 3: 90.84; 4: 112.51; 5: 100.09; 6: 96.96; 7: 109.82
